Reported Zymosan-C3b IC50 (nM), 10% serum is given for each of the following binders.
Biological target: Human Factor P (human, UniProt P27918 29-469)
Sequence (P27918 29-469 limits assumed): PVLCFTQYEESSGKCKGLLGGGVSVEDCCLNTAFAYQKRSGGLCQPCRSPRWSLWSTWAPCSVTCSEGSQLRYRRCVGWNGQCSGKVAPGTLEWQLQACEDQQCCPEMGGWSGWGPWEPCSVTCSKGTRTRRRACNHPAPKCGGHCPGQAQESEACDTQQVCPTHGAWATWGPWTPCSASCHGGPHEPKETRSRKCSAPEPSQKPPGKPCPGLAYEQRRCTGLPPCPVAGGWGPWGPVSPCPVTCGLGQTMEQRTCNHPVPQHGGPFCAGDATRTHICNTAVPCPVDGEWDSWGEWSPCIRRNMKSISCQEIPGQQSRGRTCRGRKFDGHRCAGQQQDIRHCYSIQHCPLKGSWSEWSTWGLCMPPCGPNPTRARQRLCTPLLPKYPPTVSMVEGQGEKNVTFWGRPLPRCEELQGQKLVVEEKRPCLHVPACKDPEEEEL
Assay: cell-based or functional assay
Provide the reading as a plain figure in nM.

Check out these entries, answers already filled in.
BINDER: NVS962-G (Fab, V domains shown, NVS962 with heavy chain N30 replaced with glycine) VH: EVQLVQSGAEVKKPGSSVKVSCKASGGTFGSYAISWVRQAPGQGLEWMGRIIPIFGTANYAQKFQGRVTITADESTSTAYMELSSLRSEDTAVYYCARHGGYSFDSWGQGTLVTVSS VL: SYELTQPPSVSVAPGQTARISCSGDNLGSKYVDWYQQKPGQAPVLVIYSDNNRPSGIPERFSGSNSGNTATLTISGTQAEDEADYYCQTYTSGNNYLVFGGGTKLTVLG
UNIT_ABBREV: nM
NUMERIC_READOUT: 1.18
--
BINDER: NVS962-Q (Fab, V domains shown, NVS962 with heavy chain N30 replaced with glutamine (deamidation site removed)) VH: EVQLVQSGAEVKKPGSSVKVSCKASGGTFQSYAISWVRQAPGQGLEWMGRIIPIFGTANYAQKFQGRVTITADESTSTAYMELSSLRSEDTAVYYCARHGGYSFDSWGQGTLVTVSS VL: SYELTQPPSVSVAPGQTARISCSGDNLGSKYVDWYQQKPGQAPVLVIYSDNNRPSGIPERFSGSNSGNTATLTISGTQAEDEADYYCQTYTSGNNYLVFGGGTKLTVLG
UNIT_ABBREV: nM
NUMERIC_READOUT: 0.64
--
BINDER: NVS962-S (Fab, V domains shown, NVS962 with heavy chain N30 replaced with serine) VH: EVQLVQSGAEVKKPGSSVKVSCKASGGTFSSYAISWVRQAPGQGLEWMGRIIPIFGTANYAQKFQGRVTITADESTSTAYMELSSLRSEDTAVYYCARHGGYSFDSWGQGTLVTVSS VL: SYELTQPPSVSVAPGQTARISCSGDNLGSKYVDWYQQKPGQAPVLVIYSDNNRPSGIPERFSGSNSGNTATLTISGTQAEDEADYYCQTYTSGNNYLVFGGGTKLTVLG
UNIT_ABBREV: nM
NUMERIC_READOUT: 1.53

Attention now turns to another entry.
Request: Quick one: Zymosan-C3b IC50 (nM), 10% serum of NVS967 (Fab, V domains shown, Disulfide-bridged Fab; also called Fab NVS967) VH: EVQLVQSGAEVKKPGASVKVSCKASGYTFTSHYMHWVRQAPGQGLEWMGNINPVDGGTEYAQKFQGRVTMTRDTSISTAYMELSSLRSEDTAVYYCARDGIEHGGHYYWGYLFDIWGQGTLVTVSS VL: SYVLTQPPSVSVAPGKTARISCSGDSIREYYVHWYQQKPGQAPVLVIGDDTNRPSGIPERFSGSNSGNTATLTISRAQAGDEADYYCAAWDFSPAIVFGGGTKLTVLG ?
Response: 2.53
